Test system: NCI-H23
assayDetails: NCI tumour cell line growth inhibition, 48 h
Calls of active or inactive are those of the source. Rule as the data show it: active = GI50 up to about 1.1 µM and inactive = higher.
readout: GI50

GI50 of O=C(c1ccc(Cl)cc1Cl)N(Cc1cccnc1)C(=S)N(Cc1cccnc1)C(=O)c1ccc(Cl)cc1Cl on NCI-H23? 12.2 µM (inactive)

GI50 of CC(C)C[C@H](NC(=O)[C@H](CCc1ccccc1)NC(=O)c1ccc2ccccc2n1)B(O)O on NCI-H23? 0.0367 µM (active)

GI50 of O=C1c2ccccc2C2(O)Oc3cccc(O)c3C12O (centres undefined) on NCI-H23? > 100 µM (inactive)

GI50 of CCCC/C=C1\CCC(CN2CCOCC2)C1=O (centres undefined) on NCI-H23? 5.7 µM (inactive)

GI50 of CCCCCCn1c(SC)nc(COC(=O)NC)c1COC(=O)NC on NCI-H23? 21.2 µM (inactive)

GI50 of CCOC(=O)C1=C(Nc2ccc(Cl)cc2Cl)OC/C1=N\NS(=O)(=O)c1ccc(C)cc1 on NCI-H23? > 100 µM (inactive)

GI50 of COCN1C(=O)[C@@H]2CCCN2C(=O)c2cc(OC)c(Cc3ccccc3)cc21 on NCI-H23? > 100 µM (inactive)

GI50 of C/C(=N\N=C(/S)SCc1ccccc1)c1ccccn1 on NCI-H23? < 0.01 µM (active)

GI50 of CCOC(=O)c1ccc(NCc2ccc3nc(OC)c(OC)nc3c2)cc1 on NCI-H23? > 100 µM (inactive)

GI50 of CCn1c2ccccc2c2ccc(C3C(C(=O)OC)=C(C)NC(C)=C3C(=O)OC)cc21 on NCI-H23? 56 µM (inactive)

GI50 of CCOC(=O)NN1C(=O)C(=P(c2ccccc2)(c2ccccc2)c2ccccc2)C(C(=O)OCC)=C1C on NCI-H23? > 100 µM (inactive)

GI50 of C/C(=N\NS(=O)(=O)c1ccc(C)cc1)P(=O)(O)O on NCI-H23? > 100 µM (inactive)

GI50 of COc1cc2c(cc1OC(=O)c1cc3ccccc3[nH]1)N=C[C@@H]1CCCN1C2=O on NCI-H23? 0.37 µM (active)

GI50 of COc1ccc2nc(C)cc(NCCCCCCCCCNc3cc(C)nc4ccc(OC)cc34)c2c1 on NCI-H23? 1.73 µM (inactive)

GI50 of CCCCCCCCOCC(O)COC(C)C (centres undefined) on NCI-H23? 25.7 µM (inactive)

GI50 of O=C(O)C(Cl)(c1ccccc1)c1ccccc1 on NCI-H23? > 100 µM (inactive)

GI50 of O=C1NCC2(CCNCC2)N1 on NCI-H23? > 100 µM (inactive)

GI50 of C=C(C)C1CC=C(C)[C@](O)(C2(O)C[C@H](C(=C)C)CC=C2C)C1 (some centres undefined) on NCI-H23? > 100 µM (inactive)

GI50 of COc1ccc2c(c1)[n+]([O-])c(C(=O)C/C(=N\NC(=O)C[N+](C)(C)C)C(=O)Nc1cc(Cl)ccc1Cl)c(C)[n+]2[O-] on NCI-H23? > 100 µM (inactive)

GI50 of O=C(O)c1cc2ccc(Cl)cc2c(O)c1C1=CCCCC1 on NCI-H23? 26.4 µM (inactive)

GI50 of CCCCCCCCOC(CO)CO on NCI-H23? > 100 µM (inactive)

GI50 of COC(=O)CC(C(C(=O)OCc1ccccc1)C(C)O)N1C(=O)OC(c2ccccc2)C1c1ccccc1 (centres undefined) on NCI-H23? > 100 µM (inactive)

GI50 of COc1cc2c(cc1OCCCCCCCCN1C(=O)c3cccc4cccc(c34)C1=O)N=C[C@@H]1CCCN1C2=O on NCI-H23? 15.1 µM (inactive)

GI50 of CN(CC(=O)Nc1ccccc1C(=O)O)c1ccccc1 on NCI-H23? > 100 µM (inactive)

GI50 of COc1ccc(NC(=O)CC(=O)N/N=C/c2ccc(N(CCC#N)S(=O)(=O)c3ccccc3)cc2)cc1 on NCI-H23? > 100 µM (inactive)

GI50 of O=C1C(Cl)=C(N2C(=O)CCCC2=O)C(=O)c2ccccc21 on NCI-H23? 17.2 µM (inactive)

GI50 of CCc1ccccc1NC(=O)CCc1n[nH]c(=S)o1 on NCI-H23? > 100 µM (inactive)

GI50 of CCOC(=O)c1ccc2c(c1)nc1n2C(c2c(F)cccc2F)SC1 (centres undefined) on NCI-H23? 17.6 µM (inactive)

GI50 of O=C(NNc1ccc([N+](=O)[O-])cc1[N+](=O)[O-])/C(O)=C\C(=O)c1ccccc1 on NCI-H23? 20 µM (inactive)

----------
Record form. Attribute: GI50. Fill in for each entry.
System: A549
assayDetails: NCI tumour cell line growth inhibition, 48 h
Activity calls are given as the source filed them. No stated cut-off is given here; in the data, active = GI50 up to about 1.1 µM and inactive = higher.

GI50 of COc1ccc(NC(=O)CC(=O)N2N=C(C)C(/N=N/c3ccc(C(=O)O)cc3)C2=O)cc1 (configuration not stated) on A549? > 100 µM (inactive)

GI50 of C[n+]1c(-c2ccc(/C=C/C=N\NC(=O)c3ccc(C(=O)N/N=C\C=C\c4ccc(-c5cn6ccccc6[n+]5C)cc4)cc3)cc2)cn2ccccc21 on A549? 74.1 µM (inactive)

GI50 of COc1ccc2oc(=O)c(-c3cc4c(c(C)n3)c(=O)oc3ccc(OC)cc34)cc2c1 on A549? > 100 µM (inactive)

GI50 of O=c1[nH]c(Nc2ccc(Br)c(C(F)(F)F)c2)nc2[nH]cnc12 on A549? 72.1 µM (inactive)

GI50 of O=C(CCc1cccc(O)c1)NCCc1cccc(OCc2ccccc2)c1 on A549? 28.1 µM (inactive)

GI50 of O=C(O)COc1ccccc1C(=O)Nc1ccccc1 on A549? > 100 µM (inactive)

GI50 of COC(=O)CC(=O)C[P+](c1ccccc1)(c1ccccc1)c1ccccc1 on A549? 197 µM (inactive)

GI50 of CCOC(=O)/C=C/c1c[nH]c(=O)[nH]c1=O on A549? > 75 µM (inactive)

GI50 of O=C1c2ccccc2-c2c1c(-c1cccc(Br)c1)nc1ccc3ccccc3c21 on A549? > 100 µM (inactive)

GI50 of CC(C)(C)/N=C1\C(=O)C2(C)CCC1C2(C)C (configuration not stated) on A549? > 100 µM (inactive)

GI50 of Cc1c(/C=N\NC(=S)NCCNC(=S)N/N=C\c2c(C)n(C)n(-c3ccccc3)c2=O)c(=O)n(-c2ccccc2)n1C on A549? > 100 µM (inactive)

GI50 of O=C(CC(=O)n1nc(-c2ccccc2)c(/N=N/c2ccc(Cl)cc2)c1-c1ccccc1)Nc1ccc(Cl)cc1 on A549? > 43.9 µM (inactive)

GI50 of Nc1nc(Cl)cc(NCC2(CO)CC(O)C2)n1 (configuration not stated) on A549? > 100 µM (inactive)

GI50 of Cc1cccc2c(=O)c([Se]c3coc4c(C)cccc4c3=O)coc12 on A549? 7.71 µM (inactive)

GI50 of CC(C)(C)/N=c1/n(C(C)(C)C)oc(=O)n1-c1ccccc1 on A549? > 50 µM (inactive)

GI50 of NC(CO)c1ccc(OCc2ccccc2)cc1 (configuration not stated) on A549? > 100 µM (inactive)

GI50 of CC(=O)O/N=C/c1cc2c(cc1Br)OCO2 on A549? > 349 µM (inactive)

GI50 of C=C(C)C1CC=C(C)[C@](O)(C2(O)C[C@H](C(=C)C)CC=C2C)C1 (some centres not stated) on A549? > 100 µM (inactive)

GI50 of CCOC(=O)NC(=O)c1cn(CCSCCOC(=O)NCCCCCCNC(=O)OCCSCCn2cc(C(=O)NC(=O)OCC)c(=O)n(C)c2=O)c(=O)n(C)c1=O on A549? 45.2 µM (inactive)

GI50 of COC(=O)c1cc2/c(=N/O)c3ccccc3sc2o1 on A549? > 100 µM (inactive)

GI50 of CC(C)(Cl)C(Br)CC/C(CBr)=C(/Cl)CCl.CC(C)(Cl)C(Br)CC/C(CBr)=C(\Cl)CCl (configuration not stated) on A549? > 10 µM (inactive)

GI50 of O=C(O)CC[N+]1=CCC(c2ccccc2)(c2ccccc2)O1 on A549? > 100 µM (inactive)

----------
System: OVCAR-5
assayDetails: NCI tumour cell line growth inhibition, 48 h
Calls of active or inactive are those of the source. Rule as the data show it: active = GI50 up to about 1.1 µM and inactive = higher.
Record form. Attribute: GI50. Fill in for each entry.

Fill in the blank: the reported GI50 of O=C1c2ccccc2-c2c1c(-c1cccc(Br)c1)nc1ccc3ccccc3c21 is ____. > 100 µM (inactive)

Fill in the blank: the reported GI50 of CC1=C[C@@H]2Cc3occc3C(C)(C)[C@@H]2CC1 is ____. 22.8 µM (inactive)

Fill in the blank: the reported GI50 of CSc1ncnc2c1cnn2Cc1cnnn1COCC(O)CO (stereo not drawn) is ____. > 100 µM (inactive)

Fill in the blank: the reported GI50 of C=C(C)C1CC=C(C)[C@](O)(C2(O)C[C@H](C(=C)C)CC=C2C)C1 (stereo partly drawn) is ____. > 100 µM (inactive)

Fill in the blank: the reported GI50 of CCN(CC)C1Oc2cc3c(cc2C(c2cc(OC)c(O)c(OC)c2)C1C)OCO3 (stereo not drawn) is ____. 14.2 µM (inactive)

Fill in the blank: the reported GI50 of Cn1c2c(c3c(=O)[nH]ncc31)Cc1ccccc1-2 is ____. 31.1 µM (inactive)

Fill in the blank: the reported GI50 of CCCCCCC(O)C(=O)OC1C2C(CC1(C)C)C(O)C13OC1C(O)C1(CO1)[C@@]23C (stereo partly drawn) is ____. > 100 µM (inactive)

Fill in the blank: the reported GI50 of Cc1csc(-n2c(C)nc3cc(Cl)ccc3c2=O)n1 is ____. > 100 µM (inactive)

Fill in the blank: the reported GI50 of O=C(NNc1ccc([N+](=O)[O-])cc1[N+](=O)[O-])/C(O)=C\C(=O)c1ccccc1 is ____. 19.7 µM (inactive)

Fill in the blank: the reported GI50 of CC(C)OCC(O)COc1ccc2ccc(=O)oc2c1 (stereo not drawn) is ____. > 100 µM (inactive)

Fill in the blank: the reported GI50 of O=C(O)CNn1c(SCC(=O)O)nnc(/C=C/c2c(O)ccc3ccccc23)c1=O is ____. 28.5 µM (inactive)

Fill in the blank: the reported GI50 of Nc1nc(S)nc2snnc12 is ____. > 100 µM (inactive)

Fill in the blank: the reported GI50 of C#CCn1c(I)cc2c(c1=O)COC(=O)[C@]2(O)CC is ____. > 100 µM (inactive)
